# tested-system: human cloned CHRM2 receptor (M2_CHO cells) (Homo sapiens)
# Construct: expressed in transfected cells; host or cells: CHO-K1
# Sequence (P08172 whole entry): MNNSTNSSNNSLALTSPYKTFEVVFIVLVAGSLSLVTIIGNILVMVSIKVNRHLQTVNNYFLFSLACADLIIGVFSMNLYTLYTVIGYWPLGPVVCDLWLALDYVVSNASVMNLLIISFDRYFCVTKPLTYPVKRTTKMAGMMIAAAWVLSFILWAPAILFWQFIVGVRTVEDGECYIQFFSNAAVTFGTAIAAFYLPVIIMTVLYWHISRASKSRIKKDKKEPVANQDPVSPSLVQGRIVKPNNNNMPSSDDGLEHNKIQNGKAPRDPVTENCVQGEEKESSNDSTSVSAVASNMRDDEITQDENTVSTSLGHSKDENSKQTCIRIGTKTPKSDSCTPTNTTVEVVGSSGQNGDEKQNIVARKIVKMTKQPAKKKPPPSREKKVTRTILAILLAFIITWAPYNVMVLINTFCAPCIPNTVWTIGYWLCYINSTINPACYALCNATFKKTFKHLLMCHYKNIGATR
# experimental-details: CHRM2 Ca++ Flux Assay (agonist mode, FDSS 7000EX)
# Format: cell-based
# condition-set: Percent Activity measured to EC100 of Carbachol; read-out: M2 FDSS PA
readout-kind: Emax (%)

- Fc1cccc(C2CCN([C@@H]3CCC4(C3)CN(c3cncnc3)C4)CC2)c1OC1COC1: 16
- FC1(COc2ccccc2C2CCN([C@@H]3CCC4(C3)CN(c3nncs3)C4)CC2)COC1: 41

[1] Fc1cncc(N2CC3(CC[C@@H](N4CCC(c5ccccc5C5CCOCC5)CC4)C3)C2)c1
[2] O=C(C1COC1)N1CC2(CC[C@@H](N3CCC(c4ccccc4OCC4(C(F)(F)F)CC4)CC3)C2)C1
[3] COc1ccccc1C1CCN([C@@H]2CCC3(C2)CN(c2cnc(C)nc2)C3)CC1
[4] c1ccc(C2CCN([C@@H]3CCC4(C3)CN(c3nnco3)C4)CC2)c(OC2COC2)c1
Request: Ascending by Emax, please: list the molecules accordingly. Give me the labels in the order the question wants.
Response: 3, 2, 1, 4
(3: 0%, 2: 12%, 1: 28%, 4: 40%)

[1] c1ccc(C2CCN([C@@H]3CCC4(C3)CN(c3nnco3)C4)CC2)c(OC[C@@H]2COCCO2)c1
[2] CC(C)(O)COc1ccccc1C1CCN([C@@H]2CCC3(C2)CN(c2nncs2)C3)CC1
Request: Which shows the larger Emax value: 1 or 2 ? Please indicate the selected item by its label.
Response: 2

[A] O=C(C1COC1)N1CC2(CC[C@@H](N3CCC(c4ccccc4OCCC(F)(F)F)CC3)C2)C1
[B] c1ccc(C2CCN([C@@H]3CCC4(C3)CN(c3cncnc3)C4)CC2)c(OCC2CCOCC2)c1
[C] COCCOc1ccccc1C1CCN([C@@H]2CCC3(C2)CN(c2ncns2)C3)CC1
[D] COc1ccccc1C1CCN([C@@H]2CCC3(C2)CN(c2nncs2)C3)CC1
Request: Ranking field: Emax; order: falling. Labels, ranked as asked.
Response: B, D, A, C

[1] COc1ccccc1C1CCN([C@@H]2CCC3(C2)CN(c2cncc(F)c2)C3)CC1
[2] COc1ccccc1C1CCN([C@@H]2CCC3(C2)CN(c2ncnc(C)n2)C3)CC1
Request: Hi! Which is lower in terms of Emax, the first one 1 or the second one 2 ? In your reply, give the label of the chosen option.
Response: 2
(2: 0%, 1: 26%)

###

# tested-system: Cloned human M1 receptor (CHRM1) stably expressed in HEK293 cells (Homo sapiens)
# Sequence (P11229 1-460): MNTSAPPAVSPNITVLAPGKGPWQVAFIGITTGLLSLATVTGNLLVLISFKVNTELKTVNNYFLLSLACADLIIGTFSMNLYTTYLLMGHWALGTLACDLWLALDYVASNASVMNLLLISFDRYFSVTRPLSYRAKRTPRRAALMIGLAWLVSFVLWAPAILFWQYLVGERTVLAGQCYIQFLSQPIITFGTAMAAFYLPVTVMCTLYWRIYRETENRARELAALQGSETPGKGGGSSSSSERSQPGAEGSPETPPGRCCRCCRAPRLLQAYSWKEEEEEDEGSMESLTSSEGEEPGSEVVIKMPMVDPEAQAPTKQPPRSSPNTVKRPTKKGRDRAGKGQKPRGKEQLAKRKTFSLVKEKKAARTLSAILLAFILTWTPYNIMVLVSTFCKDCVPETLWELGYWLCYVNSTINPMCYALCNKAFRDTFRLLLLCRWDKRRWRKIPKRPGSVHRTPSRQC
# experimental-details: CHRM1 Ca++ Flux Assay (agonist mode, FDSS 7000EX)
# condition-set: geometric mean if tested more than once
readout-kind: EC50 (nM)

Would you please look over these solved cases?
- c1ccc(C2CCN([C@@H]3CCC4(C3)CN(c3nnco3)C4)CC2)c(OC2CCOCC2)c1 [Example 2F]: 277
- c1ccc(C2CCN([C@@H]3CCC4(C3)CN(c3cncnc3)C4)CC2)c(C2CCOCC2)c1 [Example 5BB]: 201
- O=C(C1COC1)N1CC2(CC[C@@H](N3CCC(c4ccccc4Oc4nccs4)CC3)C2)C1 [Example 7C]: 11

[1] COc1ccccc1C1CCN([C@@H]2CCC3(C2)CN(c2ccnnc2)C3)CC1 [Example 5S]
[2] FC(F)(F)Oc1ccccc1C1CCN([C@@H]2CCC3(C2)CN(c2ncco2)C3)CC1 (single isomer, unassigned) [Example 10K]
Request: Select one. Lower EC50: 1 or 2 API: response body contains the label of the selected item.
Response: 2
(2: 94 nM, 1: 1040 nM)

[A] CC(C)(O)CCOc1ccccc1C1CCN([C@@H]2CCC3(C2)CN(C(=O)C2COC2)C3)CC1 [Example 7CC]
[B] O=C(N1CC2(CC[C@@H](N3CCC(c4cc(F)ccc4OC4CC5(COC5)C4)CC3)C2)C1)C1(F)CC1 (single isomer, unassigned) [Example 11B]
Request: Which value of EC50 is smaller, the one for A or the one for B ? // respond with label for picked entry
Response: A
(A: 6 nM, B: 30 nM)

[A] O=C(C1COC1)N1CC2(CC[C@@H](N3CCC(c4ccccc4OC4CC4)CC3)C2)C1 [Example 7A]
[B] O=C(N1CC2(CC[C@@H](N3CCC(c4ccccc4OC(F)(F)F)CC3)C2)C1)C1(F)CC1 (single isomer, unassigned) [Example 9B]
[C] O=C(N1CC2(CC[C@@H](N3CCC(c4ccccc4OC(F)(F)F)CC3)C2)C1)C1(F)CC1 (single isomer, unassigned) [Example 9A]
[D] N#CCCOc1ccccc1C1CCN([C@@H]2CCC3(C2)CN(C(=O)C2COC2)C3)CC1 [Example 7D]
Request: Rank items: key EC50, increasing. Response field: labels, in requested order.
Response: D, A, B, C

###

# tested-system: human cloned CHRM2 receptor (M2_CHO cells) (Homo sapiens)
# Construct: expressed in transfected cells; host or cells: CHO-K1
# experimental-details: CHRM2 Ca++ Flux Assay (agonist mode, FDSS 7000EX)
# Assay type: cell-based
# condition-set: Percent Activity measured to EC100 of Carbachol; read-out: M2 FDSS PA
readout-kind: Emax (%)

- c1ccc(C2CCN([C@@H]3CCC4(C3)CN(c3cncnc3)C4)CC2)c(OC2CCOCC2)c1: 28
- O=C(C1COC1)N1CC2(CC[C@@H](N3CCC(c4ccccc4OCCC4COC4)CC3)C2)C1: 21

[a] c1ccc(C2CCN([C@@H]3CCC4(C3)CN(c3nncs3)C4)CC2)c(OCC2CCOCC2)c1
[b] c1ccc(C2CCN([C@@H]3CCC4(C3)CN(c3nnco3)C4)CC2)c(OC[C@H]2COCCO2)c1
Request: Between the entries labeled a and b , whose measured Emax is lower? # reply format: chosen label
Response: b
(b: 15%, a: 28%)

###

# tested-system: Cloned human M1 receptor (CHRM1) stably expressed in HEK293 cells (Homo sapiens)
# Construct: expressed in transfected cells; host or cells: HEK293
# experimental-details: CHRM1 Ca++ Flux Assay (agonist mode, FDSS 7000EX)
# Format: cell-based
# condition-set: Percent Activity
readout-kind: M1 FDSS PA (%)

* Cc1nnc(COc2ccccc2C2CCN([C@@H]3CCC4(C3)CN(C(=O)C3(F)CC3)C4)CC2)o1 (single isomer, unassigned) [Example 7W] | 80
* O=C(N1CC2(CC[C@@H](N3CCC(c4ccccc4C4(O)CCOCC4)CC3)C2)C1)C1(F)CC1 (single isomer, unassigned) [Example 9G] | 16
* COc1ccc(Cl)cc1C1CCN([C@H]2CCC3(C2)CN(C(=O)C2(F)CC2)C3)CC1 (single isomer, unassigned) [Example 8B] | 63

[1] O[C@H]1CC[C@@H](c2ccccc2C2CCN([C@@H]3CCC4(C3)CN(c3nnco3)C4)CC2)CC1 (single isomer, unassigned)
[2] O=C(N1CC2(CC[C@@H](N3CCC(c4ccccc4OCC4CCOCC4)CC3)C2)C1)C1(F)CC1 (single isomer, unassigned)
Request: Of the pair 1 and 2 , name the member with the lesser recorded M1 FDSS PA. Selection: enter the item's label.
Response: 2

[1] COc1ccccc1C1CCN([C@@H]2CCC3(C2)CN(c2ncns2)C3)CC1 (single isomer, unassigned) [Example 10R]
[2] Cc1nc(COc2ccccc2C2CCN([C@@H]3CCC4(C3)CN(C(=O)C3(F)CC3)C4)CC2)no1 (single isomer, unassigned) [Example 7X]
[3] O=C(N1CC2(CC[C@@H](N3CCC(c4ccccc4OCC4CC4)CC3)C2)C1)C1(F)CC1 (single isomer, unassigned) [Example 7T]
Request: Put the entries in order of M1 FDSS PA, starting with the largest number. Dear reader, please state the labels in the requested order.
Response: 2, 3, 1

[A] O=C(N1CC2(CC[C@@H](N3CCC(c4ccccc4C4(O)CCOCC4)CC3)C2)C1)C1(F)CC1 (single isomer, unassigned) [Example 9H]
[B] COc1ccccc1C1CCN([C@@H]2CCC3(C2)CN(c2ncns2)C3)CC1 (single isomer, unassigned) [Example 10Q]
Request: Given the listed items, does A or B have the lesser reported M1 FDSS PA? Label of pick, please.
Response: A
(A: 0%, B: 66%)

[I] Fc1ccc(OC2CC3(COC3)C2)c(C2CCN([C@@H]3CCC4(C3)CN(c3cncnc3)C4)CC2)c1 (single isomer, unassigned) [Example 10F]
[II] COc1ccc(Cl)cc1C1CCN([C@H]2CCC3(C2)CN(C(=O)C2(F)CC2)C3)CC1 (single isomer, unassigned) [Example 8A]
[III] FC(F)Oc1ccccc1C1CCN([C@@H]2CCC3(C2)CN(c2nncs2)C3)CC1 (single isomer, unassigned) [Example 10O]
Request: Order by M1 FDSS PA, ascending. Order the labels as requested and give them as your answer.
Response: I, II, III

[A] Fc1cncc(N2CC3(CC[C@@H](N4CCC(c5cc(F)ccc5OC5CCOCC5)CC4)C3)C2)c1 (single isomer, unassigned) [Example 10A]
[B] Fc1ccc(C2CCOCC2)c(C2CCN([C@@H]3CCC4(C3)CN(c3cncnc3)C4)CC2)c1 (single isomer, unassigned) [Example 10C]
Request: Returns: the label, A or B , whose recorded M1 FDSS PA is the lower number. State the label of the item chosen.
Response: A

[a] COC(C)(C)CCOc1ccccc1C1CCN([C@@H]2CCC3(C2)CN(C(=O)C2(F)CC2)C3)CC1 (single isomer, unassigned)
[b] O=C(N1CC2(CC[C@@H](N3CCC(c4cc(F)ccc4OC4CCOCC4)CC3)C2)C1)C1(F)CC1 (single isomer, unassigned) [Example 9D]
[c] O=C(N1CC2(CC[C@@H](N3CCC(c4ccccc4OC4CC5(COC5)C4)CC3)C2)C1)C1(F)CC1 (single isomer, unassigned) [Example 11D]
Request: # desc sort on M1 FDSS PA across 3 compounds Returns: the labels arranged in the requested order.
Response: b, a, c

[A] O=C(N1CC2(CC[C@@H](N3CCC(c4cc(F)ccc4OC4CC5(COC5)C4)CC3)C2)C1)C1(F)CC1 (single isomer, unassigned) [Example 11B]
[B] Fc1ccc(OC2CC3(COC3)C2)c(C2CCN([C@@H]3CCC4(C3)CN(c3cncnc3)C4)CC2)c1 (single isomer, unassigned) [Example 10E]
[C] O=C(N1CC2(CC[C@@H](N3CCC(c4cc(F)ccc4C4CCOCC4)CC3)C2)C1)C1(F)CC1 (single isomer, unassigned) [Example 9L]
Request: Arrange the 3 entries by M1 FDSS PA so the values rise. List each label, following the requested order.
Response: B, A, C
